Exercise: state measured IC50 for each of the compounds provided.
species on record: Homo sapiens; experiment: Tested for the inhibition of leukotriene biosynthesis in human whole blood; format: functional
Only the number, expressed in nM, is required.

Recorded IC50 of NC(=O)N(O)C/C=C/c1cccc(Oc2ccccc2)c1 , please.
90

Queued: NC(=O)N(O)CCNC(=O)c1cccc(Oc2ccccc2)c1
230
